Give measured melting point for each item. Keep answers brief.

Prompt: Param item = `COc1ccc(Cn2c3c(c4c2-c2ccccc2C4=O)C(=O)CCC3)cc1` ; retrieve measured melting point.
Completion: 198 to 199 °C

Prompt: Entry `O=C1CCCc2[nH]c3c(c21)C(=O)c1ccccc1-3` : reported melting point = ?
Completion: 332 to 333 °C

Prompt: Need melting point, item COC(=O)C1C(=O)c2c3c(n(-c4ccccc4)c2CC1C)-c1ccccc1C3=O (stereo not shown)
Completion: 249 to 250 °C

Prompt: Report melting point for COc1ccc(CCn2c3c(c4c2-c2ccccc2C4=O)C(=O)CCC3)cc1OC (hydrate or solvate) please.
Completion: 189 to 190 °C

Prompt: Form field: reported melting point of CC(c1ccccc1)n1c2c(c3c1-c1ccccc1C3=O)C(=O)CCC2 (racemic)
Completion: 201 °C

Prompt: I would be grateful if you could share the reported melting point for `O=C1CCCc2c1c1c(n2CCO)-c2ccccc2C1=O` .
Completion: 262 to 263 °C

Prompt: What value of melting point has been recorded for this entry: `O=C(O)Cn1c2c(c3c1-c1ccccc1C3=O)C(=O)CCC2`
Completion: 279 to 280 °C (dec.)
